Data provenance is patent US20240391954A1.

Biological target: human MC3R (Homo sapiens)
Construct: expressed in transfected cells; host or cells: HEK-293 cells stably expressing the GScAMP22F split-luciferase cAMP sensor (parent reporter line from Promega); MC3R clone generated in-house, G418 selection
Sequence (P41968 whole entry): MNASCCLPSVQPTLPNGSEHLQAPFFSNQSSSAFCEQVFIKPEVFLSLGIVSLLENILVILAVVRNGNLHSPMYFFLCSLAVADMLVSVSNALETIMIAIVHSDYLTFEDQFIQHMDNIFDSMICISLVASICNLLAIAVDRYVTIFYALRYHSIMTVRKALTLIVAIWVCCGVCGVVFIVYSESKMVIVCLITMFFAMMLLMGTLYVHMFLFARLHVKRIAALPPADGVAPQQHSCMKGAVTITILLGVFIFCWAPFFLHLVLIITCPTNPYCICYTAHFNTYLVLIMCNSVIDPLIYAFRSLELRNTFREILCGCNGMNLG
Experiment: split-luciferase cAMP sensor assay, agonist mode (measurement window 1), hMC3R
Format: cell-based
Details: agonist mode, hMC3R stable cell line; read-out: MC3R cAMP % max activation
Positions of bridges follow the written chain, without caps; N, C: chain ends. Non-standard residues stand in square brackets, D forms with d. Residues, ends and D or L forms follow the SMILES beside them. dPhe(4-Br) = N[C@H](Cc1ccc(Br)cc1)C(=O)O; d(hPhe) = N[C@H](CCc1ccccc1)C(=O)O
measurement-label: Emax (%)
# output: bare number, implied unit %

molecule: CC(=O)N[C@@H](CCCNC(=N)N)C(=O)N[C@H]1CSSC[C@@H](C(=O)N[C@@H](CCCCN)C(=O)N2CCC[C@H]2C(=O)N[C@H](C(N)=O)C(C)C)NC(=O)[C@@H](Cc2c[nH]c3ccccc23)NC(=O)[C@H](CCCNC(=N)N)NC(=O)[C@@H](Cc2ccc(Br)cc2)NC(=O)[C@H](CCCNC(=N)N)NC(=O)[C@@H](C)NC1=O [CTX-1216] (Ac-RC[dA]R[dPhe(4-Br)]R[dW]CKPV-NH2; disulfide 2-8 (inferred))
Emax (%): 11
//
molecule: CC(=O)N[C@@H](CCCNC(=N)N)C(=O)N[C@H]1CSSC[C@@H](C(N)=O)NC(=O)[C@@H](Cc2c[nH]c3ccccc23)NC(=O)[C@H](CCCNC(=N)N)NC(=O)[C@@H](CCc2ccccc2)NC(=O)[C@H](CCCNC(=N)N)NC(=O)[C@@H](C)NC1=O [CTX-1277] (Ac-RC[dA]R[d(hPhe)]R[dW]C-NH2; disulfide 2-8 (inferred))
Emax (%): 5.2

Shifting focus to the molecule that follows.
Inquiry: Could you tell me which Emax is on file for CC(=O)N[C@@H](CCCNC(=N)N)C(=O)N[C@H]1CSSC[C@@H](C(N)=O)NC(=O)[C@H](Cc2ccccc2)NC(=O)[C@H](CCCNC(=N)N)NC(=O)[C@@H](Cc2ccc(Br)cc2)NC(=O)[C@H](CCCNC(=N)N)NC(=O)[C@@H](C)NC1=O [CTX-1258] (Ac-RC[dA]R[dPhe(4-Br)]RFC-NH2; disulfide 2-8) ?
Reply text: 36
